Origin of measurements: patent US10710986B2

- assay-system: PD-1/PD-L1 (Homo sapiens (Human), UniProt Q9NZQ7)
- Sequence (Q9NZQ7 19-238): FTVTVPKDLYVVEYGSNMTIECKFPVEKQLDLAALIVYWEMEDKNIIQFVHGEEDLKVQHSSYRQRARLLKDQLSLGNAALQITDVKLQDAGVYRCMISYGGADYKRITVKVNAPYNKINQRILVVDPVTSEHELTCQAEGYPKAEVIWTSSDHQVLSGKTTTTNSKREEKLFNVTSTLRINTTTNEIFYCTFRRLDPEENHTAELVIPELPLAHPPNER
- protocol-description: PD-1/PD-L1 biochemical protein-protein interaction assay (ALPHA)
- conditions-used: 0.3 nM His tagged PD-L1, 2.5 nM biotinylated Fc-PD-1, 60 minutes at 25° C., read-out: IC50 PD-L1-PD1
Rule: IC50 below 0.3 nM gives satisfied, anything at or above gives not satisfied.

Lab note: confirm whether the reported IC50 for this compound is below 0.3 nM, equality not counting. compound: COc1nc(-c2cccc(-c3cccc(-c4cnc(CNC(CO)CF)c(OC)n4)c3Cl)c2Cl)cnc1CNC[C@@H]1CCC(=O)N1 (stereo partly drawn) [compound 248]
satisfied

Next entry: COc1nc(-c2cccc(-c3cccc(-c4cnc(CN5CC[C@@H](O)C5)c(OC)n4)c3Cl)c2Cl)cnc1CN1CC[C@@H](O)C1 [compound 130]
satisfied

Next entry: COc1nc(-c2cccc(-c3cccc(-c4cnc(CN[C@H]5CC[C@H](NC(C)=O)CC5)c(OC)n4)c3Cl)c2Cl)cnc1CNC[C@H]1CCC(=O)N1 [compound 195]
satisfied

Next entry: COc1nc(-c2cccc(-c3cccc(-c4cnc(CN5CCN[C@H](C6CC6)C5)c(OC)n4)c3Cl)c2Cl)cnc1CNC[C@@H]1CCC(=O)N1 [compound 259]
satisfied

***
Lab note: confirm whether the reported IC50 for this compound is below 0.3 nM, equality not counting. compound: COc1nc(-c2cccc(-c3cccc(-c4cnc(CN5CC6(CNC(=O)C6)C5)c(OC)n4)c3Br)c2F)cnc1CN1CC2(CNC(=O)C2)C1 [compound 393]
not satisfied

###

- assay-system: PD-1/PD-L1 (Homo sapiens (Human))
- protocol-description: PD-1/PD-L1 biochemical protein-protein interaction assay (ALPHA)
- conditions-used: 0.3 nM His tagged PD-L1, 2.5 nM biotinylated Fc-PD-1, 60 minutes at 25° C., read-out: IC50 PD-L1-PD1
Rule: IC50 below 0.1 nM gives met, anything at or above gives not met.

Example cases with answers are listed next.
Lab note: confirm whether the reported IC50 for this compound is below 0.1 nM, equality not counting. compound: COc1nc(-c2cccc(-c3cccc(-c4cnc(CNC5CC6(C5)CS(=O)(=O)C6)c(OC)n4)c3Cl)c2Cl)cnc1CNC[C@@H]1CCC(=O)N1 [compound 363]
not met

Next entry: COc1nc(-c2cccc(-c3cccc(-c4cnc(CNC[C@@H]5CCC(=O)N5)c(OC)n4)c3Cl)c2Cl)cnc1CNCCS(N)(=O)=O [compound 43]
met

Next entry: COc1nc(-c2cccc(-c3cccc(-c4cnc(CN[C@H](C)[C@@H]5CCC(=O)N5)c(OC)n4)c3Cl)c2Cl)cnc1CNC[C@@H]1CCC(=O)N1 [compound 599]
not met

Next entry: COc1nc(-c2cccc(-c3cccc(-c4cnc5c(CN6CC7(CNC(=O)C7)C6)cn(C)c5n4)c3Cl)c2Cl)cnc1CNC[C@H]1CCC(=O)N1 [compound 605]
not met

Next entry: CCc1nc(-c2cccc(-c3cccc(-c4cnc(CNC[C@@H]5CCC(=O)N5)c(CC)n4)c3Cl)c2Cl)cnc1CNC[C@@H]1CCC(=O)N1 [compound 85]
not met

Next entry: COc1nc(-c2cccc(-c3cccc(-c4cnc(CNC[C@H]5C[C@@H](O)C5)c(OC)n4)c3Cl)c2Cl)cnc1CNC[C@H]1C[C@@H](O)C1 [compound 243]
not met

Next entry: COc1nc(-c2cccc(-c3cccc(-c4cnc(CNC[C@@H]5CCC(=O)N5)c(OC)n4)c3Cl)c2Cl)cnc1CNCCN1CCCC1=O [compound 372]
not met

Next entry: CN(C)c1nc(-c2cccc(-c3cccc(-c4cnc(CN5CC6(CNC(=O)C6)C5)c(Cl)n4)c3Cl)c2Cl)cnc1CN1CC2(CNC(=O)C2)C1 [compound 102]
not met

***
Lab note: confirm whether the reported IC50 for this compound is below 0.1 nM, equality not counting. compound: COc1nc(-c2cccc(-c3cccc(-c4cnc(CN5CCC(N6CCNC6=O)C5)c(OC)n4)c3Cl)c2Cl)cnc1CNC[C@@H]1CCC(=O)N1 (stereo partly drawn) [compound 528]
met

Next entry: COc1nc(-c2cccc(-c3cccc(-c4cnc(CN5CC[C@H](O)[C@H](F)C5)c(OC)n4)c3Cl)c2Cl)cnc1CNC[C@@H]1CCC(=O)N1 [compound 280]
not met

Next entry: COc1nc(-c2cccc(-c3cccc(-c4cnc(CN5CC(C)(O)C5)c(OC)n4)c3Cl)c2Cl)cnc1CN1CC[C@@H](CO)C1 [compound 448]
met

Next entry: COc1nc(-c2cccc(-c3cccc(-c4cnc(CN5CC(O)C5)c(OC)n4)c3Cl)c2Cl)cnc1CN [compound 594]
not met

###

- assay-system: PD-1/PD-L1 (Homo sapiens (Human))
- protocol-description: PD-1/PD-L1 biochemical protein-protein interaction assay (ALPHA)
- conditions-used: 0.3 nM His tagged PD-L1, 2.5 nM biotinylated Fc-PD-1, 60 minutes at 25° C., read-out: IC50 PD-L1-PD1
Rule: IC50 below 0.1 nM gives condition met, anything at or above gives condition not met.

Lab note: confirm whether the reported IC50 for this compound is below 0.1 nM, equality not counting. compound: COc1nc(-c2cccc(-c3cccc(-c4cnc(CN5CC(C)(O)C5)c(OC)n4)c3Cl)c2Cl)cnc1CNC[C@H]1CCC(=O)N1
condition not met

Next entry: COc1nc(-c2cccc(-c3cccc(-c4cnc(CN[C@H]5C[C@@](O)(CO)C5)c(OC)n4)c3Cl)c2Cl)cnc1CNC[C@@H]1CCC(=O)N1
condition met

Next entry: COc1nc(-c2cccc(-c3cccc(-c4cnc(CN[C@H]5C[C@H](NC(C)=O)C5)c(OC)n4)c3Cl)c2Cl)cnc1CNC[C@@H]1CCC(=O)N1
condition not met

Next entry: COc1nc(-c2cccc(-c3cccc(-c4cnc(CNC[C@@H]5CCC(=O)N5)c(OC)n4)c3Cl)c2Cl)ccc1CN1CC[C@](C)(O)C1
condition not met

Next entry: COc1nc(-c2cccc(-c3cccc(-c4cnc(CN[C@@H]5CCO[C@@H]5C)c(OC)n4)c3Cl)c2Cl)cnc1CNC[C@@H]1CCC(=O)N1
condition not met

Next entry: COc1nc(-c2cccc(-c3cccc(-c4cnc(CNC(CO)(CO)CO)c(OC)n4)c3Cl)c2Cl)cnc1CNC[C@@H]1CCC(=O)N1
condition not met

###

Form field: IC50 (one value per entry).
- assay-system: PD-1/PD-L1 (Homo sapiens (Human))
- protocol-description: PD-1/PD-L1 biochemical protein-protein interaction assay (ALPHA)
- conditions-used: 0.3 nM His tagged PD-L1, 2.5 nM biotinylated Fc-PD-1, 60 minutes at 25° C., read-out: IC50 PD-L1-PD1
Your answer should be a plain number; it is taken to be in nM.

Look over these answered cases.
I would be grateful if you could share the reported IC50 for COc1nc(-c2cccc(-c3cccc(-c4cnc5c(CN6CC7(CCC(=O)N7)C6)cn(C)c5c4)c3Cl)c2Cl)cnc1CN1CC2(CCC(=O)N2)C1 .
0.064

Next entry: COc1nc(-c2cccc(-c3cccc(-c4cnc(C5=NCC(O)CN5)c(OC)n4)c3Cl)c2Cl)cnc1C1=NCC(O)CN1 (stereo not shown)
0.557

Next entry: COc1nc(-c2cccc(-c3cccc(-c4cnc(CNC5(c6cccnc6)CC5)c(OC)n4)c3Cl)c2Cl)cnc1CNC[C@@H]1CCC(=O)N1
0.617

Next entry: COc1nc(-c2cccc(-c3cccc(-c4cnc(CNC[C@@H]5CCC(=O)N5)c(OC)n4)c3Cl)c2Cl)cnc1CNC[C@H]1CNC(=O)C1
0.227

Next entry: COc1nc(-c2cccc(-c3cccc(-c4cnc(CNC5CCc6cn[nH]c6C5)c(OC)n4)c3Cl)c2Cl)cnc1CNC[C@@H]1CCC(=O)N1 (stereo partly shown)
0.48

***
I would be grateful if you could share the reported IC50 for COc1nc(-c2cccc(-c3cccc(-c4cnc(CN[C@@H](C)[C@H]5CCC(=O)N5)c(OC)n4)c3Cl)c2Cl)cnc1CNC[C@@H]1CCC(=O)N1 .
0.178

Next entry: COc1nc(-c2cccc(-c3cccc(-c4cnc(CN5CCC6(CCC(=O)N6)C5)c(OC)n4)c3Cl)c2Cl)cnc1CNC[C@H]1CCC(=O)N1 (stereo partly shown)
0.23

Next entry: COc1nc(-c2cccc(-c3cccc(-c4cnc(CNC[C@@H]5CCC(=O)N5)c(OC)n4)c3Cl)c2Cl)cnc1CNCCNC(N)=O
0.113

Next entry: COc1nc(-c2cccc(-c3cccc(-c4cnc(CN5CC(O)C5)c(OC)n4)c3Cl)c2Cl)ccc1CN1CC(O)C1
0.646

Next entry: COc1nc(-c2cccc(-c3cccc(-c4cnc(CN5CC(O)C5)c(OC)n4)c3Cl)c2F)cnc1CN1CC(O)C1
0.135

###

Form field: IC50 (one value per entry).
- assay-system: PD-1/PD-L1 (Homo sapiens (Human))
- protocol-description: PD-1/PD-L1 biochemical protein-protein interaction assay (ALPHA)
- conditions-used: 0.3 nM His tagged PD-L1, 2.5 nM biotinylated Fc-PD-1, 60 minutes at 25° C., read-out: IC50 PD-L1-PD1
The reply must contain the numeric value and, after it, the unit.

I would be grateful if you could share the reported IC50 for COc1nc(-c2cccc(-c3cccc(-c4cnc(CN5CC6CC5(CO)C6)c(OC)n4)c3Cl)c2Cl)cnc1CNC[C@@H]1CCC(=O)N1 .
100 pM

Next entry: COc1nc(-c2cccc(-c3cccc(-c4cnc(CN5CC[C@@H](CO)C5)c(OC)n4)c3Cl)c2Cl)cnc1CN1CC[C@@H](CO)C1
64 pM

Next entry: COc1nc(-c2cccc(-c3cccc(-c4cnc(CN5CC[C@H](O)C5)c(OC)n4)c3Cl)c2Cl)cnc1CNC[C@@H]1CCC(=O)N1
124 pM

Next entry: COc1nc(-c2cccc(-c3cccc(-c4cnc(CNC56CC(C(F)(F)F)(C5)C6)c(OC)n4)c3Cl)c2Cl)cnc1CNC[C@@H]1CCC(=O)N1
7510 pM

Next entry: COc1nc(-c2cccc(-c3cccc(-c4cnc(CN(CCO)CCO)c(OC)n4)c3Cl)c2Cl)cnc1CNC[C@@H]1CCC(=O)N1
64 pM

Now turn to the next compound.
I would be grateful if you could share the reported IC50 for COc1nc(-c2cccc(-c3cccc(-c4cnc(CNC[C@@H]5CCC(=O)N5)c(OC)n4)c3Cl)c2Cl)cnc1CNCC1CCN(C)C1=O (stereo partly drawn) .
200 pM
